- System: gum arabic
- Measurement Notes: VHH binding to gum arabic in ELISA
- Set-up: species or system acacia tree
- Settings: [VHH] 0.1875 μg/ml (12.5 nM); gum arabic 100 μg/ml
- Protocol: Titration of VHH antibody fragments was performed on ELISA plates (Maxisorp, Nunc) coated with 100 μl per well 100 μg/ml gum arabic in 50 mM carbonate pH9.6. […] Bound VHH were detected with sequential incubations with monoclonal mouse anti-histidine antibodies (Abd Serotec) and rabbit anti-mouse IgG whole molecule antibodies conjugated with alkaline phosphatase (RaM/AP) (Sigma) in 1% MPBS/0.05%-TWEEN®-20. […]
For each record, write down the corresponding absorbance at 405 nm.
I only need the number, thanks.

Task: So what does the record say about absorbance at 405 nm for VHH 5D4 (VHH, Hexahistidine-tagged) VHH: QVQLQESGGGLVQPGGSLRLSCAASGFDMRRFGIGWFRQVAGKEREGVSCSNVHDGTTYYTNDVKGRFTIVRDNTKNMLYLQMNKLRPEDTAVYSCATTDCEATAWGTYRGYFGQGTQVTVSS ?
Result: 0.378

Task: So what does the record say about absorbance at 405 nm for VHH5F5: plant-binding VHH, listed among SEQ ID NO:1-42 (protein, listed as Lama glama, 5F5) VHH: QVQLQESGGGLVQPGGSLRLSCAASGFPLGLYGIGWFRQAPGKEREAVSCDSVDDGSTNYLDSVKGRFTISRDNAKNMVYLQMNSLKPEDTAVYYCATTDCDAKAWGTWTNYRGQGTQVTVSS ?
Result: 0.191

Task: So what does the record say about absorbance at 405 nm for VHH5E5: plant-binding VHH, listed among SEQ ID NO:1-42 (protein, listed as Lama glama, 5E5) VHH: QVQLQESGGGLVQPGGSLTLSCTASGFAMRRFGIGWFRQVVGKEREGVSCSNVHDGSTYYANYVKGRFTIVRDDTKNMLYLHMNSLRAEDTGVYSCATTDCEATAWGTYRGYFGQGTQVTVSS ?
Result: 0.185

Task: So what does the record say about absorbance at 405 nm for VHH 3E6 (VHH, also called Monovalent VHH 3E6) VHH: QVQLQESGGGLVQPGGTLSLSCAASGFNVRWYGMGWFRQAPGKEREGVACISALQETTAYADSVKGRFTLSRDNPKNTLSLQMNNLQPEDTGVYYCATTDCDDSSRMTYTSYLGQGTQVTVSS ?
Result: 1.518

Task: So what does the record say about absorbance at 405 nm for VHH 7D2 (VHH, Hexahistidine-tagged) VHH: QVQLQESGGGLVQPGRSLKVACAAAGFSLRYYGIGWFRQAPGKEREAVSCTSANDGSTYYRDSVRGRFTISRDDGKNTVYLQMNRLKPEDTAVYYCATTDCDATSWGTWINYYGQGTQVTVSS ?
Result: 0.347
